# Tested on: A204
# method: relative viability vs DMSO control (72 h) (fraction); higher = more viable cells
# assay_context: 0.00152 µM
measured_attribute: relative viability
Could you keep your reply to the number by itself?

[
  {
    "molecule": "Cn1cc(C2=C(c3cn(C4CCN(Cc5ccccn5)CC4)c4ccccc34)C(=O)NC2=O)c2ccccc21 [Enzastaurin]",
    "relative viability": 1.13
  },
  {
    "molecule": "Cc1ccc(Nc2nccc(N(C)c3ccc4c(C)n(C)nc4c3)n2)cc1S(N)(=O)=O [Pazopanib]",
    "relative viability": 1.06
  },
  {
    "molecule": "CC1(C)CC=C(c2nc(C3CC(C)(C)OC(C)(C)C3)ccc2NC(=O)c2nc(C#N)c[nH]2)CC1 [Edicotinib]",
    "relative viability": 1.06
  },
  {
    "molecule": "COc1cc(CCc2cc(NC(=O)c3ccc(N4CC(C)NC(C)C4)cc3)n[nH]2)cc(OC)c1 (configuration not stated) [AZD-4547]",
    "relative viability": 1.04
  },
  {
    "molecule": "CN1CC[C@@H](NC(=O)Nc2ccc(C#N)cc2)C[C@@H]1c1nc2ccccc2[nH]1 [Glasdegib]",
    "relative viability": 1.09
  }
]

Sure, the documented relative viability for Cn1ncnc1[C@H]1c2n[nH]c(=O)c3cc(F)cc(c23)N[C@@H]1c1ccc(F)cc1 [Talazoparib] is 0.963

The reported relative viability of the molecule O=C(Nc1nc2cccc(-c3ccc(CN4CCS(=O)(=O)CC4)cc3)n2n1)C1CC1 [Filgotinib] was 1.07

Given item CCN1C(=O)N(c2c(F)c(OC)cc(OC)c2F)Cc2cnc3[nH]c(CN4CCOCC4)cc3c21 [Pemigatinib] , the value recorded as its relative viability is 0.98

Consider O=C1NC(=O)[C@@H](c2cn3c4c(cccc24)CCC3)[C@@H]1c1c[nH]c2ccccc12 [Tivantinib] . Its measured relative viability is 1.09

Input C[C@H](Nc1ncnc2nc[nH]c12)c1cc2cccc(Cl)c2c(=O)n1-c1ccccc1 [Duvelisib] . Output relative viability: 1.07

# relative viability (molecule: CC(C)(C)c1nc(-c2cccc(NS(=O)(=O)c3c(F)cccc3F)c2F)c(-c2ccnc(N)n2)s1 [Dabrafenib] ) is 1.04

// field: relative viability; key: COC(=O)N[C@@H](C)CNc1nccc(-c2cn(C(C)C)nc2-c2cc(Cl)cc(NS(C)(=O)=O)c2F)n1 [Encorafenib] ; value = 1

====

# System: RD
# method: relative viability vs DMSO control (72 h) (fraction); higher = more viable cells
# assay_context: 1.111 µM
Collected relative viability values appear next to each entry.
Answer as a number with no unit attached.

[
  {
    "smiles_input": "CC#CC(=O)N1CCC[C@H]1c1nc(-c2ccc(C(=O)Nc3ccccn3)cc2)c2c(N)nccn12",
    "assay_system": "RD",
    "relative viability": 1.09
  },
  {
    "smiles_input": "Cn1cc(C2=C(c3cn(C4CCN(Cc5ccccn5)CC4)c4ccccc34)C(=O)NC2=O)c2ccccc21",
    "assay_system": "RD",
    "relative viability": 1.12
  },
  {
    "smiles_input": "CC(C)(C)c1nc(-c2cccc(NS(=O)(=O)c3c(F)cccc3F)c2F)c(-c2ccnc(N)n2)s1",
    "assay_system": "RD",
    "relative viability": 0.915
  }
]

Entry CC1(C)CC=C(c2nc(C3CC(C)(C)OC(C)(C)C3)ccc2NC(=O)c2nc(C#N)c[nH]2)CC1 ; relative viability = 1.07

Reported relative viability ( COCCNc1cc(NC(=O)N2CCCc3cc(CN4CCN(C)CC4=O)c(C=O)nc32)ncc1C#N ) = 1.04

// recorded relative viability for Cc1ccc(Nc2nccc(N(C)c3ccc4c(C)n(C)nc4c3)n2)cc1S(N)(=O)=O : 1.12

Lab note: CC(C)NC[C@@H](C(=O)N1CCN(c2ncnc3c2[C@H](C)C[C@H]3O)CC1)c1ccc(Cl)cc1 gave relative viability of 0.799

Record CNC(=O)c1nnc(NC(=O)C2CC2)cc1Nc1cccc(-c2ncn(C)n2)c1OC . Reported relative viability: 1.1

====

# System: KHOS-NP
# method: relative viability vs DMSO control (72 h) (fraction); higher = more viable cells
# assay_context: 0.00051 µM
measured_attribute: relative viability
Provide a numeric answer; units are not to be included.

Use these answered entries as a reference point.
[
  {
    "molecule": "CC1(COc2ccc3c(c2)ncn3-c2ccc3cccc(N4CCC(N)CC4)c3n2)COC1",
    "assay_system": "KHOS-NP",
    "relative viability": 1.03
  },
  {
    "molecule": "COc1cc(Nc2ncc(F)c(Nc3ccc4c(n3)N(COP(=O)(O)O)C(=O)C(C)(C)O4)n2)cc(OC)c1OC",
    "assay_system": "KHOS-NP",
    "relative viability": 1.08
  },
  {
    "molecule": "CCN(CC)CCNC(=O)c1c(C)[nH]c(/C=C2\\C(=O)Nc3ccc(F)cc32)c1C",
    "assay_system": "KHOS-NP",
    "relative viability": 1.06
  },
  {
    "molecule": "Cn1ncnc1[C@H]1c2n[nH]c(=O)c3cc(F)cc(c23)N[C@@H]1c1ccc(F)cc1",
    "assay_system": "KHOS-NP",
    "relative viability": 1.04
  }
]

Alright, here's another molecule for you.
Lab note: measured relative viability of COC(=O)[C@@]1(O)C[C@H]2O[C@]1(C)n1c3ccccc3c3c4c(c5c6ccccc6n2c5c31)C(=O)NC4 [K-252a] was 1.1

====

# Test system: SK-LMS-1
# method: relative viability vs DMSO control (72 h) (fraction); higher = more viable cells
# assay_context: 0.00152 µM
The entries below come with measured relative viability values attached.
Please state the value as a number alone, without comment.

[
  {
    "compound": "COc1cc(Nc2ncc(F)c(Nc3ccc4c(n3)N(COP(=O)(O)O)C(=O)C(C)(C)O4)n2)cc(OC)c1OC [Fostamatinib]",
    "assay_system": "SK-LMS-1",
    "measured_attribute": "relative viability",
    "value_observed": 1.05
  }
]

For the compound CC(C)Oc1ccc(-c2nn([C@@H](C)c3oc4ccc(F)cc4c(=O)c3-c3cccc(F)c3)c3ncnc(N)c23)cc1F [Umbralisib] , the measured relative viability on SK-LMS-1 was 1.06

The recorded relative viability with SK-LMS-1 for CN1CC[C@@H](NC(=O)Nc2ccc(C#N)cc2)C[C@@H]1c1nc2ccccc2[nH]1 [Glasdegib] was 1.11

Measured relative viability (SK-LMS-1), entry CCC(=O)N1CC[C@H](Nc2ncnc3c2CN(c2cnc(OC)c(C(F)(F)F)c2)CC3)C1 [Leniolisib] : 1.1

Per the reported SK-LMS-1 data, Cc1ccc(Nc2nccc(N(C)c3ccc4c(C)n(C)nc4c3)n2)cc1S(N)(=O)=O [Pazopanib] has relative viability of 1.02

Kindly note: SK-LMS-1, COC(=O)[C@@]1(O)C[C@H]2O[C@]1(C)n1c3ccccc3c3c4c(c5c6ccccc6n2c5c31)C(=O)NC4 [K-252a] , relative viability value reported: 1.04

Reading of relative viability for CCN1C(=O)N(c2c(F)c(OC)cc(OC)c2F)Cc2cnc3[nH]c(CN4CCOCC4)cc3c21 [Pemigatinib] with SK-LMS-1: 1.11

The compound Clc1ccc(Nc2nnc(Cc3ccncc3)c3ccccc23)cc1 [Vatalanib] , when measured on SK-LMS-1, yielded relative viability of 0.992

====

# Test system: HT1080
# method: relative viability vs DMSO control (72 h) (fraction); higher = more viable cells
# assay_context: 10 µM
measured_attribute: relative viability

Previously resolved entries follow.
[
  {
    "compound": "C[C@H](Nc1ncnc2nc[nH]c12)c1cc2cccc(Cl)c2c(=O)n1-c1ccccc1 [Duvelisib]",
    "assay_system": "HT1080",
    "value_observed": 1.07
  },
  {
    "compound": "CCc1cnn2c(NCc3ccc[n+]([O-])c3)cc(N3CCCC[C@H]3CCO)nc12 [Dinaciclib]",
    "assay_system": "HT1080",
    "value_observed": 0.219
  },
  {
    "compound": "CC(C)Oc1ccc(-c2nn([C@@H](C)c3oc4ccc(F)cc4c(=O)c3-c3cccc(F)c3)c3ncnc(N)c23)cc1F [Umbralisib]",
    "assay_system": "HT1080",
    "value_observed": 0.955
  }
]

Alright, here's another compound for you.
Summary for this compound, CC(C)NC[C@@H](C(=O)N1CCN(c2ncnc3c2[C@H](C)C[C@H]3O)CC1)c1ccc(Cl)cc1 [Ipatasertib] : relative viability is 0.994

====

# Test system: RD
# method: relative viability vs DMSO control (72 h) (fraction); higher = more viable cells
# assay_context: 10 µM
Criterion: relative viability strictly under 0.5. Met: True. Not met: False.

See these solved cases before continuing.
[
  {
    "compound": "Cc1cc2cc(Oc3ccnc(Nc4cccc(CS(=O)(=O)NCCN(C)C)c4)n3)ccc2[nH]1",
    "qualitative_label": "True"
  },
  {
    "compound": "COc1cc(CCc2cc(NC(=O)c3ccc(N4CC(C)NC(C)C4)cc3)n[nH]2)cc(OC)c1 (stereo not drawn)",
    "qualitative_label": "True"
  },
  {
    "compound": "CC(C)(O)CNc1nc(Nc2ccnc(C(F)(F)F)c2)nc(-c2cccc(C(F)(F)F)n2)n1",
    "qualitative_label": "False"
  }
]

Confirm or reject: relative viability of O=C(Nc1nc2cccc(-c3ccc(CN4CCS(=O)(=O)CC4)cc3)n2n1)C1CC1 lies strictly below 0.5
False

Please indicate whether the reported relative viability of COc1cc(OC)c(/C=C/S(=O)(=O)Cc2ccc(OC)c(NCC(=O)O)c2)c(OC)c1 is strictly below 0.5.
True

Below 0.5 on relative viability? Entry COc1cc(Nc2ncc(F)c(Nc3ccc4c(n3)N(COP(=O)(O)O)C(=O)C(C)(C)O4)n2)cc(OC)c1OC
True

Strictly below 0.5: is that where relative viability of CCN(CC)CCNC(=O)c1c(C)[nH]c(/C=C2\C(=O)Nc3ccc(F)cc32)c1C sits?
True

Record CCC(=O)N1CC[C@H](Nc2ncnc3c2CN(c2cnc(OC)c(C(F)(F)F)c2)CC3)C1 : is its relative viability strictly below 0.5?
False
